The reader will find reported IC50 values listed item by item below.
System: NCI-H2107
Experiment Notes: SANGER: Inhibition of human NCI-H2107 cell growth in a cell viability assay.
Assay type: functional, cell-based

Check out these entries, answers already filled in.
COc1cc(C)c(Sc2cnc(NC(=O)c3ccc(CNC(C)C(C)(C)C)cc3)s2)cc1C(=O)N1CCN(C(C)=O)CC1 (stereo not drawn)
> 10.2 µM
Cc1nc(Nc2ncc(C(=O)Nc3c(C)cccc3Cl)s2)cc(N2CCN(CCO)CC2)n1
> 1.28 µM

Next:
Req: Report IC50 for Cc1n[nH]c2ccc(-c3cncc(OC[C@@H](N)Cc4c[nH]c5ccccc45)c3)cc12 please.
Resp: 0.958 µM

----------
Tested on: ES1;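 note: growth inhibition of ES1 cells, read out with a cell viability assay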
Experiment Notes: cells
Format: functional, cell-based
Run Conditions: Homo sapiens
Description: SANGER: Inhibition of human ES1 cell growth in a cell viability assay.
Measured Metric: IC50

See these solved cases before continuing.
O=c1[nH]c2ccccc2n1C1CCN(Cc2ccc(-c3nc4cc5[nH]cnc5cc4nc3-c3ccccc3)cc2)CC1
> 2.56 µM
Cc1nc(Nc2ncc(C(=O)Nc3c(C)cccc3Cl)s2)cc(N2CCN(CCO)CC2)n1
> 1.28 µM
O=c1cc(N2CCOCC2)oc2c(-c3cccc4c3sc3ccccc34)cccc12
> 2 µM

Req: Could you share which IC50 value was measured for COc1cc(Nc2c(C#N)cnc3cc(OCCCN4CCN(C)CC4)c(OC)cc23)c(Cl)cc1Cl ?
Resp: 0.675 µM

Req: Need IC50 of Cc1[nH]c(/C=C2\C(=O)Nc3ccc(S(=O)(=O)Cc4c(Cl)cccc4Cl)cc32)c(C)c1C(=O)N1CCC[C@@H]1CN1CCCC1 , thanks.
Resp: > 2 µM

Req: Query: IC50; subject: CCn1c(-c2nonc2N)nc2cnc(Oc3cccc(NC(=O)c4ccc(OCCN5CCOCC5)cc4)c3)cc21 [GSK-269962A]
Resp: > 2.5 µM

Req: I have this compound here, Cc1n[nH]c2ccc(-c3cncc(OC[C@@H](N)Cc4c[nH]c5ccccc45)c3)cc12 , and I need its recorded IC50.
Resp: 0.739 µM

Req: What does the data say about its IC50? Entry: C[C@]12O[C@H](C[C@]1(O)CO)n1c3ccccc3c3c4c(c5c6ccccc6n2c5c31)CNC4=O
Resp: 0.0953 µM

----------
Tested on: MKN-7
Experiment Notes: cells
Format: functional, cell-based
Run Conditions: Homo sapiens
Description: SANGER: Inhibition of human MKN7 cell growth in a cell viability assay.
Measured Metric: IC50 (nM)
Report as a plain number; the unit nM is understood.

CC(C)=CC[C@@H](O)C1=CC(=O)c2c(O)ccc(O)c2C1=O
2210
Fc1cc(-c2cc[nH]/c(=N/c3ccc(-n4cnc(N5CCOCC5)n4)cc3)n2)cc(N2CCOCC2)c1
3140

Req: Look up IC50: CC[C@]1(O)C[C@@H]2CN(CCc3c([nH]c4ccccc34)[C@@](C(=O)OC)(c3cc4c(cc3OC)N(C)[C@H]3[C@@](O)(C(=O)OC)[C@H](OC(C)=O)[C@]5(CC)C=CCN6CC[C@]43[C@@H]65)C2)C1
Resp: 76.7

----------
Tested on: LU-139
Experiment Notes: cells
Type: functional, cell-based
Run Conditions: Homo sapiens
Description: SANGER: Inhibition of human LU-139 cell growth in a cell viability assay.
Measured Metric: IC50

# example entries with known answers
CO[C@@]12[C@H](COC(N)=O)C3=C(C(=O)C(C)=C(N)C3=O)N1C[C@@H]1N[C@@H]12
1.22 µM
C[C@]1(c2nc3c(C(N)=O)cccc3[nH]2)CCCN1
> 5 µM
O=c1[nH]c2ccccc2n1C1CCN(Cc2ccc(-c3nc4cc5[nH]cnc5cc4nc3-c3ccccc3)cc2)CC1
> 2.56 µM

Req: Give the reported IC50 for Cc1ccc(NC(=O)c2cccc(C(C)(C)C#N)c2)cc1Nc1ccc2ncn(C)c(=O)c2c1 (system: LU-139).
Resp: > 4 µM

Req: Field: IC50 (LU-139). Entry: CCCS(=O)(=O)Nc1ccc(F)c(C(=O)c2c[nH]c3ncc(Cl)cc23)c1F
Resp: > 10 µM
